Data provenance: ChEMBL document CHEMBL3596123

Give measured pIC50 for each item. Keep answers brief.
molecular target: High affinity nerve growth factor receptor (Homo sapiens); assay: Inhibition of human recombinant TrkA using ATP and 5FAM tagged TrkA peptide substrate incubated for 60 mins by microfluidics assay
Sequence (P04629 whole entry): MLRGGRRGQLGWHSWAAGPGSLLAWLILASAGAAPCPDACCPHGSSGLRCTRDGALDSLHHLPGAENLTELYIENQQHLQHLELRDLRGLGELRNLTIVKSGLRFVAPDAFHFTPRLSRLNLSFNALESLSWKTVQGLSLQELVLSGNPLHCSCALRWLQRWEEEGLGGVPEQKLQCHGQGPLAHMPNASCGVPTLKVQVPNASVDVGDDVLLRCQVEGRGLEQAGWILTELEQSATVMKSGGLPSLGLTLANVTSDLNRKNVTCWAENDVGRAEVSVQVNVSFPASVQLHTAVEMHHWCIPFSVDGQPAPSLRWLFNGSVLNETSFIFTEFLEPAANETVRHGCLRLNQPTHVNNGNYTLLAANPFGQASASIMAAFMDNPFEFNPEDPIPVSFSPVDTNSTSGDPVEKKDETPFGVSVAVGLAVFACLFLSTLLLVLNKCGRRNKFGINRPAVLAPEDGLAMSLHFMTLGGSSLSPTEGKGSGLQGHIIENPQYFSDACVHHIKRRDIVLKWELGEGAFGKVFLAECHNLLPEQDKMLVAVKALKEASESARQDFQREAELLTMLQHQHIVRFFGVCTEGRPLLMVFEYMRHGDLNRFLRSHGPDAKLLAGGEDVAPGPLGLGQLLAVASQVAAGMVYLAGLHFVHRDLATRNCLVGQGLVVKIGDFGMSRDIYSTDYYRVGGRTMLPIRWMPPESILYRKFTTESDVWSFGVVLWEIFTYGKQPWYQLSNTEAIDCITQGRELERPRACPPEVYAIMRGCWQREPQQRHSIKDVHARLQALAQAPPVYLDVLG
Give bare numbers, as −log10 of the molar value.

Worked examples follow.
CC(C)(C)c1cc(NC(=O)Nc2cccc(Oc3cncc(-c4ccsc4)n3)c2)no1: 7.41
COc1ccc(-c2cncc(Oc3cccc(NC(=O)Nc4ccc(C(C)C)cc4)c3)n2)cc1: 6.42
O=C(Nc1cccc(Oc2cncc(Cl)n2)c1)Nc1cccc(C(F)(F)F)c1: 5.46
Cn1cc(-c2cncc(Oc3cccc(NC(=O)Nc4cccc(C(F)(F)F)c4)c3)n2)cn1: 6.28
CC(C)(C)c1cc(NC(=O)Nc2cccc(Oc3cncc(-c4ccc(S(C)(=O)=O)cc4)n3)c2)no1: 7.04
CC(C)c1ccc(NC(=O)Nc2cccc(Oc3cncc(-c4ccsc4)n3)c2)cc1: 6.06

From here, focus on the item given below.
What pIC50 value was documented for this compound, Cn1cc(-c2cncc(-c3ccc(NC(=O)Nc4cc(C(C)(C)C)nn4C)cc3)n2)cn1 ?
7.92
